// melting point lookup, one value per entry

Entry CCCC[C@H]1CC[C@H](c2ccc(OC(=O)[C@H]3CC[C@H](CCC)C3)cc2)CC1 (relative stereo) , melting point reported as 90 °C

Entry O=C(N[C@@H](Cc1ccccc1)C(=O)COC(=O)N1CCC[C@H]1C(=O)O)c1ccccc1 , melting point reported as 55 to 65 °C

Entry Nc1cc(C(=O)Nc2ccc(F)cc2)ccc1OC(F)(F)F , melting point reported as 139 to 140 °C

New cases:
Entry NNC1=Nc2ccc(Cl)cc2N(c2ccccc2)C(=O)C1 , melting point reported as 91 to 93 °C

Entry CCN(C(=O)C(C)CSC)c1sc(-c2cccnc2)nc1Cl (stereo not drawn) , melting point reported as 79 to 81 °C

Entry Nc1cc(=O)n(Cc2ccc([N+](=O)[O-])cc2)[nH]1 , melting point reported as 182 °C

Entry Cc1ccc(N2CCN(Cc3n[nH]c4c(Cl)cccc34)CC2)cc1 , melting point reported as 187 to 188 °C

Entry Cc1nc(Nc2ccc(Cl)cc2)sc1C(=O)O , melting point reported as > 250 °C

Entry Cc1ccc(CSCCCCCOc2ccc(C3=C(c4ccccc4)CCCc4cc(O)ccc43)cc2)cc1 , melting point reported as 165 to 169 °C

Entry CC(C)(C)C1CSC2(CCC(C)(C(Cl)Cl)CC2)SC1 (stereo not drawn) , melting point reported as 163 °C

Entry O=c1[nH]c2cc(F)ccc2c(=O)n1-c1ccccc1 , melting point reported as 304 to 306 °C

Entry CC(=O)N1C(=O)N(c2cc(Cl)cc(Cl)c2)C(=O)[C@]12CN(Cc1ccccc1)C[C@H]2c1ccc(C#N)cc1 (relative stereo) , melting point reported as 224 °C

Entry N#Cc1cc(F)cc(-c2cc(Br)c3c(c2)C2(CCCCC2)C(=O)N3)c1 , melting point reported as 217 °C

Entry CCC(=O)NCc1ccc(NC(=O)/C=C/c2cnn(C)c2-c2ccc(F)cc2)cc1 , melting point reported as 271 to 272 °C
